All values here come from ChEMBL document CHEMBL1201862.

A collection of compounds and their measured GI50
Test system: MDA-MB-435
Experiment: NCI tumour cell line growth inhibition, 48 h
The source made the active and inactive calls. Cut-off read from the data, not from the text of the source: active = GI50 up to about 1.1 µM and inactive = higher.

{"compound": "C[C@H]1[C@@H](c2ccccc2)O[B-](c2ccccc2)(c2ccccc2)[N+]1(C)C", "GI50": "61.8 µM (inactive)"}
{"compound": "O=C(O)C1OC1(c1cccc(Cl)c1)c1ccccc1Cl (stereo not given)", "GI50": "22.9 µM (inactive)"}
{"compound": "Cc1ccc(C(=O)Nc2ccc(CP(=O)(O)O)cc2CP(=O)(O)O)cc1NC(=O)Nc1cc(C(=O)Nc2ccc(CP(=O)(O)O)cc2CP(=O)(O)O)ccc1C", "GI50": "> 100 µM (inactive)"}
{"compound": "CNC1=Nc2ccccc2C(=S)N2CSC[C@@H]12", "GI50": "> 100 µM (inactive)"}

Okay, next one:
The recorded GI50 for entry `Fc1ccc(OCc2nc3cc(C(F)(F)F)ccc3nc2-c2ccccc2)cc1` equals > 63.8 µM (inactive)

###

Tested on: DLD-1
Test: NCI tumour cell line growth inhibition, 48 h
Activity calls are given as the source filed them. Rule as the data show it: active = GI50 up to about 1.1 µM and inactive = higher.
// classify into class 1 for active, class 0 for inactive

Worked examples, 10 molecules total:
{"molecule": "CC(C)CCCC(C)[C@H]1CCC2[C@H]3C(CC[C@@]21C)[C@@]1(C)CCC=C[C@]12C[C@@H]2[C@@H]3O (some centres undefined)", "answer.label": "class 0"}
{"molecule": "Cc1nc2c(C)c3c([nH]c4ccc(Cl)cc43)c(C)c2c(O)c1C", "answer.label": "class 0"}
{"molecule": "Cc1cc(Br)cc(C)c1NC(=O)C(=O)CC(=O)c1sc(-n2nc(-c3ccccc3)cc2-c2ccccc2)nc1C", "answer.label": "class 0"}
{"molecule": "Cc1ccc(SSCCCCS(=O)O)cc1", "answer.label": "class 0"}
{"molecule": "O=C1CCNC(=O)NC1", "answer.label": "class 0"}
{"molecule": "CC(C)c1cccc(C(C)C)c1NC(=O)C(=O)C(C(=O)c1ccc2ccccc2c1)C1OC(=O)c2ccccc21 (centres undefined)", "answer.label": "class 0"}
{"molecule": "Cn1cccc1/C=C/c1cc(Br)c(/C=C/c2cccn2C)cc1Br", "answer.label": "class 1"}
{"molecule": "Cc1ccccc1NC(=O)CC1C(=O)Nc2ccccc2[S+]1[O-] (centres undefined)", "answer.label": "class 0"}
{"molecule": "CCOc1ccc(/N=N/c2c(-c3ccccc3)nn(C(=O)CC(=O)Nc3ccccc3Cl)c2-c2ccccc2)cc1", "answer.label": "class 0"}
{"molecule": "CC(=O)OCCOCn1c2ccccc2c2c3c(c4c5ccccc5n(COCCOC(C)=O)c4c21)C(=O)N(Cc1ccccc1)C3=O", "answer.label": "class 0"}

Prompt line: Short answer needed: outcome of this test for `Nc1nc2c3nc(Nc4ccccc4)sc3nc(=O)n2c2sc(Nc3ccccc3)nc12` ?
Response line: class 0

Prompt line: // outcome(item) with item = `Cc1cc2c(cc1C)[n+]([O-])c(C(=O)C/C(=N/OCCCc1ccccc1)C(=O)Nc1cc(Cl)ccc1Cl)c(C)[n+]2[O-]`
Response line: class 0

Prompt line: Could you check what this test reported for `O=C1CCC(c2ccccc2)=NN1c1nc2ccccc2s1` ?
Response line: class 0

Prompt line: Hello, I am checking results. What call was entered for `CC(=O)Nc1ccc(/C=c2\sc3nnc(/C=C/c4ccccc4)n3c2=O)cc1` ?
Response line: class 0

Prompt line: Could you kindly confirm the outcome this assay logged for C#CCN(N=O)C(=O)NCCCCC(NC(C)=O)C(=O)NCc1ccccc1 (centres undefined) ?
Response line: class 0

Prompt line: What did the test return for CCCCCCC(C)CCCCCCCCCCC(=O)O (centres undefined) ?
Response line: class 0

Prompt line: For `CCOC(=N)CC(=O)Nc1ccccc1` , which call appears in the assay record?
Response line: class 0

Prompt line: Hi team, can someone confirm the assay call for `CC(C)(C)CC(C)(C)c1cc2c(O)c(c1)Cc1cc(C(C)(C)CC(C)(C)C)cc(c1O)Cc1cc(C(C)(C)CC(C)(C)C)cc(c1O)Cc1cc(C(C)(C)CC(C)(C)C)cc(c1O)C2` ?
Response line: class 0

Prompt line: Answer briefly: the call reported for Cc1cccc(NC(=O)C(=O)C(C2OC(=O)c3ccccc32)[N+](=O)[O-])c1C (centres undefined) in this assay.
Response line: class 0
